System: HUVEC/MSC spheroids viability
Experiment: Human HUVEC/MSC cell line growth inhibition [KRAS2]
Details: second compound 0.1 µM; first compound 0.316 µM; hits give low values
Hi! Just check whether viability, T/C is below 90%. Below gives Fulfilled, equal or above gives Not fulfilled.

INSERT INTO results (compound, group) VALUES
  ('CC1(C)CCC(CN2CCN(c3ccc(C(=O)NS(=O)(=O)c4ccc(NCC5CCOCC5)c([N+](=O)[O-])c4)c(Oc4cnc5[nH]ccc5c4)c3)CC2)=C(c2ccc(Cl)cc2)C1 + C=CC(=O)N1CCN(c2nc(=O)n(-c3c(C)ccnc3C(C)C)c3nc(-c4c(O)cccc4F)c(F)cc23)C(C)C1', 'Not fulfilled'),
  ('CCN1CCN(Cc2ccc(Nc3ncc(F)c(-c4cc(F)c5nc(C)n(C(C)C)c5c4)n3)nc2)CC1 + C=CC(=O)N1CCN(c2nc(=O)n(-c3c(C)ccnc3C(C)C)c3nc(-c4c(O)cccc4F)c(F)cc23)C(C)C1', 'Not fulfilled'),
  ('CCN1CCN(Cc2ccc(Nc3ncc(F)c(-c4cc(F)c5nc(C)n(C(C)C)c5c4)n3)nc2)CC1 + CNCc1ccccc1-c1csc(C(C)Nc2nc(C)nc3cc(OC)c(OC)cc23)c1', 'Not fulfilled'),
  ('COc1cc2nccc(Oc3ccc(NC(=O)C4(C(=O)Nc5ccc(F)cc5)CC4)cc3)c2cc1OC + CNCc1ccccc1-c1csc(C(C)Nc2nc(C)nc3cc(OC)c(OC)cc23)c1', 'Fulfilled'),
  ('CCN1CCN(Cc2ccc(Nc3ncc(F)c(-c4cc(F)c5nc(C)n(C(C)C)c5c4)n3)nc2)CC1 + COc1cc2nc(C)nc(NC(C)c3cc(N)cc(C(F)(F)F)c3)c2cc1OC1CCOC1', 'Not fulfilled'),
  ('CC1(C)CCC(CN2CCN(c3ccc(C(=O)NS(=O)(=O)c4ccc(NCC5CCOCC5)c([N+](=O)[O-])c4)c(Oc4cnc5[nH]ccc5c4)c3)CC2)=C(c2ccc(Cl)cc2)C1 + CC1OCC2(CCN(c3cnc(Sc4ccnc(N)c4Cl)c(N)n3)CC2)C1N', 'Not fulfilled'),
  ('COC(=O)c1ccc2c(C(=Nc3ccc(N(C)C(=O)CN4CCN(C)CC4)cc3)c3ccccc3)c(O)[nH]c2c1 + CNCc1ccccc1-c1csc(C(C)Nc2nc(C)nc3cc(OC)c(OC)cc23)c1', 'Fulfilled'),
  ('CCNC(=O)CC1N=C(c2ccc(Cl)cc2)c2cc(OC)ccc2-n2c(C)nnc21 (stereo not given) + CC1OCC2(CCN(c3cnc(Sc4ccnc(N)c4Cl)c(N)n3)CC2)C1N', 'Not fulfilled'),
  ('COc1cc(Nc2ncc3c(n2)-c2ccc(Cl)cc2C(c2c(F)cccc2OC)=NC3)ccc1C(=O)O + C=CC(=O)N1CCN(c2nc(=O)n(-c3c(C)ccnc3C(C)C)c3nc(-c4c(O)cccc4F)c(F)cc23)C(C)C1', 'Not fulfilled'),
  ('Cn1nccc1Nc1nccc(-c2cc3c(s2)C(C)(C)N(CCN2CCOCC2)C3=O)n1 + C=CC(=O)N1CCN(c2nc(=O)n(-c3c(C)ccnc3C(C)C)c3nc(-c4c(O)cccc4F)c(F)cc23)C(C)C1', 'Not fulfilled'),
  ('Cn1nccc1Nc1nccc(-c2cc3c(s2)C(C)(C)N(CCN2CCOCC2)C3=O)n1 + CNCc1ccccc1-c1csc(C(C)Nc2nc(C)nc3cc(OC)c(OC)cc23)c1', 'Not fulfilled'),
  ('CCN1CCN(Cc2ccc(Nc3ncc(F)c(-c4cc(F)c5nc(C)n(C(C)C)c5c4)n3)nc2)CC1 + CC1OCC2(CCN(c3cnc(Sc4ccnc(N)c4Cl)c(N)n3)CC2)C1N', 'Not fulfilled'),
  ('CC(C)NCC(C(=O)N1CCN(c2ncnc3c2C(C)CC3O)CC1)c1ccc(Cl)cc1 (stereo not given) + C=CC(=O)N1CCN(c2nc(=O)n(-c3c(C)ccnc3C(C)C)c3nc(-c4c(O)cccc4F)c(F)cc23)C(C)C1', 'Fulfilled'),
  ('COc1cc(Nc2ncc3c(n2)-c2ccc(Cl)cc2C(c2c(F)cccc2OC)=NC3)ccc1C(=O)O + CC1OCC2(CCN(c3cnc(Sc4ccnc(N)c4Cl)c(N)n3)CC2)C1N', 'Not fulfilled'),
  ('O=C(c1cc(Cc2n[nH]c(=O)c3ccccc23)ccc1F)N1CCN(C(=O)C2CC2)CC1 + C=CC(=O)N1CCN(c2nc(=O)n(-c3c(C)ccnc3C(C)C)c3nc(-c4c(O)cccc4F)c(F)cc23)C(C)C1', 'Not fulfilled');
